For UniProt O94782, measured IC50 is reported for the entries below.
Sequence (O94782 whole entry): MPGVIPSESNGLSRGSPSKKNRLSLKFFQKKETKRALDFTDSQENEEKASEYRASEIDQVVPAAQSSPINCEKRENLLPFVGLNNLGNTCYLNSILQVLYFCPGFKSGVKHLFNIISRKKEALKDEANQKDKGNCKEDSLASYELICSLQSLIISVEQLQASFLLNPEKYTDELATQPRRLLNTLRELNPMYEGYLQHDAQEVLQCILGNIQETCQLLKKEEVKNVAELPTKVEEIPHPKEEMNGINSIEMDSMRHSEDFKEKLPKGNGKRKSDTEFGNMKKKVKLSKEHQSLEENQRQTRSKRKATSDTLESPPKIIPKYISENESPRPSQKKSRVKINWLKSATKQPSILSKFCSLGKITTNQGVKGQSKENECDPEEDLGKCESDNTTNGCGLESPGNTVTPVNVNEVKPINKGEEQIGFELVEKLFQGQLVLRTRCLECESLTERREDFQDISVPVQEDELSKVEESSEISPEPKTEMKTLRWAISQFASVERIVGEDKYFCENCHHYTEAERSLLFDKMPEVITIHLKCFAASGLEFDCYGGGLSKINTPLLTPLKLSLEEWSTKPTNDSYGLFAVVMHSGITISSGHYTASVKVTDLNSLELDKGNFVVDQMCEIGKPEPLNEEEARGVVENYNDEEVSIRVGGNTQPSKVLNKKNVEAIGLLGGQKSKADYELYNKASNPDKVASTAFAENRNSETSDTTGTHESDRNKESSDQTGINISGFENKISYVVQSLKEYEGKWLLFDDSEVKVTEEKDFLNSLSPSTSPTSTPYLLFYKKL
Sequence (Q8TAF3 whole entry partner): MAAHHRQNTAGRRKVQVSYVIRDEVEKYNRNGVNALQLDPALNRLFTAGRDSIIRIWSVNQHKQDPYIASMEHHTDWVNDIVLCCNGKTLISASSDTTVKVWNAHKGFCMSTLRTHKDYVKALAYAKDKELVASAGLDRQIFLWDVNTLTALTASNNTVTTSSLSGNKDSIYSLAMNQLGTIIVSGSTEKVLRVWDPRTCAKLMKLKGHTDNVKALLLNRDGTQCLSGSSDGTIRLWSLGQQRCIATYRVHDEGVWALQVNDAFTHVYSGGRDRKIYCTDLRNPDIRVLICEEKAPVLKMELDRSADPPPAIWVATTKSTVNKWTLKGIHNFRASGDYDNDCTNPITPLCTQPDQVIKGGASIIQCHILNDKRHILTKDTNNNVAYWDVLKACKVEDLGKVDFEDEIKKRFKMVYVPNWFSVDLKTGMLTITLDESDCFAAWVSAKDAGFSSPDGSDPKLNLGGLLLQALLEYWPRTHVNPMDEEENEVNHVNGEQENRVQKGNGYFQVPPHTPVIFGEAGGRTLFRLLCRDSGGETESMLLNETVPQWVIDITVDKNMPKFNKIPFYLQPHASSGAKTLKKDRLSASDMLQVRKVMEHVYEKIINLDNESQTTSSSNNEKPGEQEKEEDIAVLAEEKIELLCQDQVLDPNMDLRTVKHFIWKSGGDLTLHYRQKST

Consider the following illustrative entries.
compound	IC50
CC(C)n1cc(C(F)(F)F)nc1-c1ccc(Cc2c[nH]c3cnc(-c4c(OC(F)F)ncnc4C4CC4)nc23)cc1 [Compound 132]	< 30 nM
CCn1c(C(F)(F)F)cnc1-c1ccc(C(O)c2c[nH]c3cnc(-c4c(OC)ncnc4C4CC4)nc23)cc1 (stereo not shown) [Compound 75]	≥ 10000 nM

Report IC50 on UniProt O94782 for this entry: COc1ncnc(C2CC2)c1-c1ncc2[nH]cc(Cc3ccc(-c4nc(C(F)(F)F)cn4C(C)C)cc3)c2n1 [Compound 54] < 30 nM

Report value only: IC50, UniProt O94782, Cn1cc(C(F)(F)F)nc1-c1ccc(Cc2n[nH]c3cnc(-c4c(C5CC5)ncnc4C4CC4)nc23)cc1 [Compound 183] < 30 nM
